Protocol Notes: Anticholinergic Activity in Rats
Set-up: species or system Sprague-Dawley rats (male)
Measurement Context: rat, in vivo, sc, read-out: ED50 Anticholinergic s.c.
Property Label: ED50 (mg/kg)
State the answer as a number, implicitly in mg/kg.

Query: Using the record for CC(C)NC(=S)N1CCc2ncn(C)c2C1 , state its measured ED50.
Response: 7

Query: Report measured ED50; entry is CNC(=S)N1CCc2ncn(C)c2C1 [II CH3 H CH3, reference compound]
Response: 50

Query: Give recorded ED50. CCC1c2c(ncn2C)CCN1C(=S)NC(C)C (stereo not drawn) [II CH3 C2 H5 i.Pr, reference compound]
Response: 40

Query: Give reported ED50 value for CC(C)NC(=S)N1CCc2c(ncn2C)C1
Response: 25

Query: Given the compound C/N=C(\S)NCCSCc1[nH]cnc1C [Methiamide] , write its reported ED50.
Response: 65

---

I'd be grateful if you could share measured ED50 for these entries.
System: cysteamine-induced duodenal lesions
Protocol Notes: Inhibition of Cysteamine-Induced Duodenal Lesions in Rats
Assay type: in vivo, Sprague-Dawley rats (male)
Measurement Context: Rattus norvegicus, sc, s.c. 30 minutes before cysteamine, read-out: ED50 Cysteamine s.c.
Report as a plain number; the unit mg/kg is understood.

Query: Give a short answer stating reported ED50 for CCC1c2ncn(CC)c2CCN1C(=S)NC(C)C (stereo not shown) [I C2 H5 C2 H5 i.Pr] .
Response: 0.5

Query: Annotate the molecule CCC1c2c(ncn2C)CCN1C(=S)NC(C)C (stereo not shown) [II CH3 C2 H5 i.Pr, reference compound] with its measured ED50.
Response: 50

Query: Note ED50 for the molecule shown: CCC1c2ncn(C)c2CCN1C(=S)NC(C)C (stereo not shown) [I CH3 C2 H5 i.Pr]
Response: 20

Query: Indicate the recorded ED50 value for this molecule: CCC1c2c(ncn2CC)CCN1C(=S)NC(C)C (stereo not shown) [II C2 H5 C2 H5 i.Pr, reference compound]
Response: 5.5

---

Protocol Notes: Anticholinergic Activity in Rats
Parameters: species or system Sprague-Dawley rats (male)
Measurement Context: rat, in vivo, po, os, read-out: ED50 Anticholinergic os
Property Label: ED50 (mg/kg)
Number in mg/kg, nothing else.

Query: Return value of ED50 for input CNC(=S)N1CCc2ncn(C)c2C1 [II CH3 H CH3, reference compound] , no commentary.
Response: 100

Query: Answer with the recorded ED50 of C/N=C(\S)NCCSCc1[nH]cnc1C [Methiamide] only.
Response: 85

Query: Determine its reported ED50: CC(C)NC(=S)N1CCc2ncn(C)c2C1
Response: 50

Query: Provide measured ED50 value, entry: CCC1c2c(ncn2C)CCN1C(=S)NC(C)C (stereo not drawn) [II CH3 C2 H5 i.Pr, reference compound]
Response: 60

Query: State its ED50: CC(C)NC(=S)N1CCc2c(ncn2C)C1
Response: 100

---

Tested on: restraint ulcer
Protocol Notes: Inhibition of Restraint Ulcer in Rats
Assay type: in vivo, Sprague-Dawley rats (male)
Measurement Context: Rattus norvegicus, po, 1 h, orally one hour before immobilization, read-out: ED50 Antiulcer os
Property Label: ED50 (mg/kg)
Please give a number only; it is taken to be in mg/kg.

Query: Read off the recorded ED50 for CCC1c2c(ncn2C)CCN1C(=S)NC(C)C (stereo not drawn) [II CH3 C2 H5 i.Pr, reference compound]
Response: 50

Query: Query ED50 for CCC1c2ncn(C)c2CCN1C(=S)NC(C)C (stereo not drawn)
Response: 2.5

Query: Entry CNC(=S)N1CCc2c(ncn2C)C1 needs its ED50 filled in; supply it.
Response: 25

Query: Give ED50 for CC(C)NC(=S)N1CCc2c(ncn2C)C1
Response: 4.5

Query: Please look at this molecule and report its ED50: CCC1c2ncn(CC)c2CCN1C(=S)NC(C)C (stereo not drawn)
Response: 3.5

Query: Supply reported ED50 belonging to this molecule: CNC(=S)N1CCc2ncn(C)c2C1 [II CH3 H CH3, reference compound]
Response: 50

---

Protocol Notes: Toxicity (LD50) in mice
Measurement Context: mouse, in vivo, po, os
So I've got a bunch of compounds here, and I need their LD50 values.

Query: Let me know recorded LD50 for CCC1c2ncn(CC)c2CCN1C(=S)NC(C)C (stereo not shown) , thanks.
Response: > 2500 mg/kg

Query: Please report the measured LD50 for CCC1c2ncn(C)c2CCN1C(=S)NC(C)C (stereo not shown)
Response: > 2500 mg/kg

Query: For the compound CCC1c2c(ncn2C)CCN1C(=S)NC(C)C (stereo not shown) [II CH3 C2 H5 i.Pr, reference compound] , give its reported LD50.
Response: 980 mg/kg

Query: Quickly give me recorded LD50 for CCC1c2c(ncn2CC)CCN1C(=S)NC(C)C (stereo not shown) [II C2 H5 C2 H5 i.Pr, reference compound]
Response: 870 mg/kg

---

Protocol Notes: Anticholinergic Activity in Rats
Set-up: species or system Sprague-Dawley rats (male)
Measurement Context: rat, in vivo, sc, read-out: ED50 Anticholinergic s.c.
Protocol: (3) Anticholinergic Activity in Rats. Considering that many anti-ulcer agents display, as does atropine, a remarkable but undesired anti-cholinergic activity, some derivatives were assessed for their antagonism against chromodacryorrhea induced by carbacholine in rats. (Winburg M. et al, J. Pharm. Exp. Therap., 1949, 95, 53).
Could you please report measured ED50 for the items listed next?

Query: State its ED50: CCC1c2ncn(CC)c2CCN1C(=S)NC(C)C (stereo not shown)
Response: > 200 mg/kg

Query: Specify reported ED50 for the molecule shown: CNC(=S)N1CCc2c(ncn2C)C1
Response: > 100 mg/kg

Query: Consider the molecule CCC1c2c(ncn2CC)CCN1C(=S)NC(C)C (stereo not shown) [II C2 H5 C2 H5 i.Pr, reference compound] . State its measured ED50.
Response: > 100 mg/kg

Query: Hello, please tell me recorded ED50 for this one: CCC1c2ncn(C)c2CCN1C(=S)NC(C)C (stereo not shown)
Response: > 100 mg/kg

---

Protocol Notes: Anticholinergic Activity in Rats
Design: species or system Sprague-Dawley rats (male)
Measurement Context: rat, in vivo, po, os, read-out: ED50 Anticholinergic os
Property Label: ED50

Query: Name the recorded ED50 of the compound listed here: CCC1c2ncn(CC)c2CCN1C(=S)NC(C)C (stereo not shown) [I C2 H5 C2 H5 i.Pr]
Response: > 400 mg/kg

Query: Hello, please tell me recorded ED50 for this one: CCC1c2ncn(C)c2CCN1C(=S)NC(C)C (stereo not shown) [I CH3 C2 H5 i.Pr]
Response: > 100 mg/kg

Query: Give ED50 for the following compound: CNC(=S)N1CCc2c(ncn2C)C1 [I CH3 H CH3]
Response: > 100 mg/kg

Query: Determine from records and report ED50 for CCC1c2c(ncn2CC)CCN1C(=S)NC(C)C (stereo not shown) [II C2 H5 C2 H5 i.Pr, reference compound]
Response: > 100 mg/kg

Reference source: patent US4223146A
